# Test system: Raji, human Burkitts lymphoma cells
# ASSAY_REMARKS: Cell-MTS proliferation assay, Raji
# Format: cell-based
# CONDITIONS: Homo sapiens, Raji; Cell-MTS, 168 hr; class symbols A/B/C
IC50 overview

Worked examples follow.
MOLECULE	IC50
CCS(=O)(=O)Nc1ccc(Oc2ccc(F)cc2F)c(-c2cc(C(F)(F)F)c(=O)n(C)c2)c1 [Example 138]	< 500 nM
Cn1cc(-c2cc(NS(C)(=O)=O)ccc2F)c2ccccc2c1=O [Example 34]	< 500 nM
Cn1cc(-c2cc(S(C)(=O)=O)ccc2OCC2CC2)c2ccccc2c1=O [Example 89]	< 500 nM
Cc1c(-c2cc(NS(C)(=O)=O)ccc2Oc2ccc(F)cc2F)cn(C)c(=O)c1C [Example 103]	500 to 5000 nM
COc1ccc(-c2cc(N)c(=O)n(C)c2)cc1NS(C)(=O)=O [Example 109]	> 5000 nM
CCS(=O)(=O)Nc1ccc(Oc2ccc(F)cc2F)c(-c2cn(C)c(=O)cc2F)c1 [Example 139]	< 500 nM
CCS(=O)(=O)Nc1ccc(Oc2ccc(F)cc2F)c(-c2cn(C)c(=O)c3ccncc23)c1 [Example 127]	< 500 nM

Now for another entry.
Query: IC50; subject: CCS(=O)(=O)c1ccc(OCC2CC2)c(-c2cn(C)c(=O)c3ccccc23)c1 [Example 135]
< 500 nM
